System: Staphylococcus aureus
TEST_METHOD_NOTES: Inhibition of biofilm formation in Staphylococcus aureus ATCC 657 at 1.5 ug/ml after 24 hrs by MTT assay
Type: functional
MEASUREMENT_CONTEXT: ATCC 657, 24 h
MEASUREMENT_LABEL: inhibition at 1.5 µg/mL

O=C(c1cc(Br)ccc1O)c1[nH]c(Br)c(Cl)c1Br :: > 60%
O=C(c1cc(Br)ccc1O)c1[nH]c(Br)c(Br)c1Br :: > 60%
O=C(c1cc(Br)ccc1O)c1[nH]c(Cl)c(Br)c1Br :: > 60%

Challenge: Tell me measured inhibition at 1.5 µg/mL for "O=C(c1cc(Cl)cc(Cl)c1O)c1[nH]c(Br)c(Br)c1Br" please.
Response given: 67.9 to 86.7%

Challenge: Tell me measured inhibition at 1.5 µg/mL for "O=C(c1cc(Br)cc(Br)c1O)c1[nH]c(Br)c(Br)c1Br" please.
Response given: 68.5 to 100%

Challenge: Tell me measured inhibition at 1.5 µg/mL for "O=C(c1cc(Cl)cc(Cl)c1O)c1[nH]c(Cl)c(Cl)c1Cl" please.
Response given: > 60%

----------
TEST_METHOD_NOTES: Inhibition of bacterial beta-lactamase CTX-M-9 using nitrocefin as substrate by spectrophotometric analysis
Design: species or system Bacteria
pIC50: −log10 of the molar value.
MEASUREMENT_LABEL: pIC50

Challenge: Tell me measured pIC50 for "CC(=O)NNC(=O)[C@@H]1CC[C@@H]2CN1C(=O)N2OS(=O)(=O)[O-].[Na+]" please.
Response given: 6.49 to 8.10

----------
TEST_METHOD_NOTES: Inhibition of bacterial AmpC using nitrocefin as substrate incubated for 5 mins followed by substrate addition by UV-vis spectrophotometer
Set-up: species or system Bacteria
MEASUREMENT_LABEL: Ki (nM)
Quick reminder: number only, in nM, skip the unit.

Challenge: Tell me measured Ki for "O=C(Cc1cccs1)N[C@H](B(O)O)c1cccc(C(=O)O)c1" please.
Response given: 1

----------
TEST_METHOD_NOTES: Inhibition of bacterial KPC by measuring nitrocefin degradation
Parameters: species or system Bacteria
pKi: −log10 of the molar value.
MEASUREMENT_LABEL: pKi

Challenge: Tell me measured pKi for O=C(O)C[C@@H]1CC[C@H](NC(=O)Cc2cccs2)B(O)O1 [VABORBACTAM] please.
Response given: 7.00 to 7.54

----------
Tested on: Staphylococcus aureus
TEST_METHOD_NOTES: Antibiofilm activity against methicillin-resistant Staphylococcus aureus BAA-44 after 24 hrs by crystal violet staining based assay
Type: functional
MEASUREMENT_CONTEXT: BAA-44, 24 h
MEASUREMENT_LABEL: pIC50
When answering, recall that pIC50 equals minus log10 of the concentration in mol/L, and write that number alone.

Worked cases, pIC50 given:
CCCCOc1cc(Br)cc(/C=C(\C)Cn2cc(CCCCCc3c[nH]c(N)n3)nn2)c1F :: 5.35
C/C(=C\c1cccc2ccccc12)Cn1cc(CCCCCc2c[nH]c(N)n2)nn1 :: 5.01

Challenge: Tell me measured pIC50 for "CCCCOc1ccc(/C=C(\C)Cn2cc(CCCCCc3c[nH]c(N)n3)nn2)cc1" please.
Response given: 5.07

----------
TEST_METHOD_NOTES: Inhibition of bacterial beta-lactamase KPC-2 using nitrocefin as substrate by spectrophotometric analysis
Parameters: species or system Bacteria
pIC50: −log10 of the molar value.
MEASUREMENT_LABEL: pIC50

Challenge: Tell me measured pIC50 for "CC(=O)NNC(=O)[C@@H]1CC[C@@H]2CN1C(=O)N2OS(=O)(=O)[O-].[Na+]" please.
Response given: 6.49 to 8.10
